# experimental_target: LRRK2 (Homo sapiens)
# Sequence (Q5S007 whole entry): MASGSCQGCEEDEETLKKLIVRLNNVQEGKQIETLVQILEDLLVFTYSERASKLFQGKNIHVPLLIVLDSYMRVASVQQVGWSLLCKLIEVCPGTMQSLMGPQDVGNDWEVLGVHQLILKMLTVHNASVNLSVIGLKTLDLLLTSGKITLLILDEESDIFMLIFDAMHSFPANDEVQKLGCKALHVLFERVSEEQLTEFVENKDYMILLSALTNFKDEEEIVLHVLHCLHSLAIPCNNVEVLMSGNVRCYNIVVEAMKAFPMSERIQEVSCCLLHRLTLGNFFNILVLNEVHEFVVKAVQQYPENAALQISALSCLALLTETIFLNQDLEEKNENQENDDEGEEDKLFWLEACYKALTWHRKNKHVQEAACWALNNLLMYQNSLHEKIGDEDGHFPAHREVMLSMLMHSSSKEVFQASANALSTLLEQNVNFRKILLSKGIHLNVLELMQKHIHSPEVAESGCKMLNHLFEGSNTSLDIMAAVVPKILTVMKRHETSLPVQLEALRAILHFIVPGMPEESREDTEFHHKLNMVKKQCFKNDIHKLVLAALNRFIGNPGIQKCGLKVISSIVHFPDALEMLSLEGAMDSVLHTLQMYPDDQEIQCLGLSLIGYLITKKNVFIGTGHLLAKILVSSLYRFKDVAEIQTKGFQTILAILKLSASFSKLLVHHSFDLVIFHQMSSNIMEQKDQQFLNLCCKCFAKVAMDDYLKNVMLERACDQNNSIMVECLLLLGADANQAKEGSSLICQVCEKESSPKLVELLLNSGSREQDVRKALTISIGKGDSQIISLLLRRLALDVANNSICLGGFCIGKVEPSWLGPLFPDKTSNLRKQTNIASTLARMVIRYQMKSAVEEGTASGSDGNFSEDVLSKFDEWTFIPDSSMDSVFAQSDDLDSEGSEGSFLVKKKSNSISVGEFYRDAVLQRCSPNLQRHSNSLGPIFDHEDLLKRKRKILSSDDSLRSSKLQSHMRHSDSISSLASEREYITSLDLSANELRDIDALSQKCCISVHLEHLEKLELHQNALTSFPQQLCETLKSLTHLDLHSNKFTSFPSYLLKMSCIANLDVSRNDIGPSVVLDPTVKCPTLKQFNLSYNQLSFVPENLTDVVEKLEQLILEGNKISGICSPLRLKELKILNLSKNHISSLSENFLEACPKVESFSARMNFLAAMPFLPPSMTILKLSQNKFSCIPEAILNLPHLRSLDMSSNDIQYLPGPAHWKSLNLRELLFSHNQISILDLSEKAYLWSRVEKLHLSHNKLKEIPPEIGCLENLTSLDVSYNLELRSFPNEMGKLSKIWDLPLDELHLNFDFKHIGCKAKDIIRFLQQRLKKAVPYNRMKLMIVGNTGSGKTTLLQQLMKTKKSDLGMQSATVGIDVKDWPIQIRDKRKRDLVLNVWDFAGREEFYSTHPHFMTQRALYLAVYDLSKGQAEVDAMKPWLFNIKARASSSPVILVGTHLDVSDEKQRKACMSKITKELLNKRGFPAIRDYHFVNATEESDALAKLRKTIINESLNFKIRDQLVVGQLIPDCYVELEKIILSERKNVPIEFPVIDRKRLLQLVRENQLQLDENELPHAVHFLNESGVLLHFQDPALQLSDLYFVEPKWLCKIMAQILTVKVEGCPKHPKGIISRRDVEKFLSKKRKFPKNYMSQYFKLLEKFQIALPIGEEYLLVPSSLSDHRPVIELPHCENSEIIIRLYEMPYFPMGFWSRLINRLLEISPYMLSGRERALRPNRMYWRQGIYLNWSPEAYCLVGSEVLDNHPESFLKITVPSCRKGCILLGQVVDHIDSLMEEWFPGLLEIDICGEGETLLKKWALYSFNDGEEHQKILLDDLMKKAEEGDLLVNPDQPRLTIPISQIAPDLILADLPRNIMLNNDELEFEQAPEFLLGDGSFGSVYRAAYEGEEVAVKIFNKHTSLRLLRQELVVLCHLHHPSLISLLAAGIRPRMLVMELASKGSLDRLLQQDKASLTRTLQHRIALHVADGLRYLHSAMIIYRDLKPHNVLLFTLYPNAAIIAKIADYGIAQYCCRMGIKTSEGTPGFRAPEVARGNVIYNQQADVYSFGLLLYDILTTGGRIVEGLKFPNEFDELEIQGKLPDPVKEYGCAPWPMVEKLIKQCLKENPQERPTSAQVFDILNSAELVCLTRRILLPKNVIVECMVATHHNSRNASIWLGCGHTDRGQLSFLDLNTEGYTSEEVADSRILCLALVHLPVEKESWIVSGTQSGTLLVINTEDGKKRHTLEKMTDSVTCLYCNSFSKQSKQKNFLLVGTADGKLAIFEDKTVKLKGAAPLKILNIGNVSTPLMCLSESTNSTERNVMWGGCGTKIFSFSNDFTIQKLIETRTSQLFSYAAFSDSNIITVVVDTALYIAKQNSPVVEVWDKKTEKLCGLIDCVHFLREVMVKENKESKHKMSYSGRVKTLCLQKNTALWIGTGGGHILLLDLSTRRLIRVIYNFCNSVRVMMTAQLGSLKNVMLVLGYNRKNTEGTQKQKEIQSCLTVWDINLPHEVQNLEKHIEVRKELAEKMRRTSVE
# test: experiment of inhibiting LRRK2 kinase activity (ADP-Glo method)
# Format: biochemical
# details: Table 4
quantity_measured: IC50

Sample records with IC50:
>  <structure_as_smiles>
CN1CCOc2ccc(Nc3ncc(Cl)c(O[C@H]4CC[C@@](C)(O)CC4)n3)cc2OCC1

>  <IC50>
< 100 nM

$$$$
>  <structure_as_smiles>
CN1CCOc2ccc(Nc3ncc(C(F)(F)F)c(NCCP(C)(C)=O)n3)cc2OCC1

>  <IC50>
< 100 nM

$$$$
>  <structure_as_smiles>
COCc1ccccc1Nc1nc(Nc2ccc3c(c2)OCCN(C)CCOCCO3)ncc1C(F)(F)F

>  <IC50>
< 100 nM

$$$$

So the reported IC50 for CNc1cc(O[C@H]2CC[C@@](C)(O)CC2)nc(Nc2ccc3c(c2)OCCN(C)CCO3)n1 , on LRRK2 (Homo sapiens), turned out to be 500 to 1000 nM

So the reported IC50 for CN1CCOCCOc2ccc(Nc3ncc(Cl)c(O[C@H]4CC[C@@](C)(O)CC4)n3)cc2OCC1 , on LRRK2 (Homo sapiens), turned out to be < 100 nM

---

# experimental_target: UniProt P29597
# test: experiment of inhibiting kinase activity, TYK2
# Type: biochemical
# details: at 10 nM; read-out: inhibition rate TYK2
Catalogue of inhibition at 0.01 µM values

>  <structure_as_smiles>
CCS(=O)(=O)N1CC(CC#N)(n2cc(-c3nc(Nc4ccc5c(c4)OCCN(C)CCO5)nc4[nH]ccc34)cn2)C1

>  <inhibition at 0.01 µM>
> 80%

$$$$
>  <structure_as_smiles>
CN1CCOCCOc2cc(Nc3nc(-c4ccc(C(=O)NCC#N)cc4)c4cc[nH]c4n3)ccc2OCC1

>  <inhibition at 0.01 µM>
40 to 79%

$$$$
>  <structure_as_smiles>
CCS(=O)(=O)N1CC(CC#N)(n2cc(-c3nc(Nc4ccc5c(c4)OCCN(C)CCOCCO5)ncc3F)cn2)C1

>  <inhibition at 0.01 µM>
40 to 79%

$$$$

Okay, now this compound:
So the reported inhibition at 0.01 µM for CCS(=O)(=O)N1CC(CC#N)(n2cc(-c3nc(Nc4ccc5c(c4)OCCN(C)CCO5)ncc3F)cn2)C1 , on UniProt P29597, turned out to be 40 to 79%

---

# test: measurement of the solubility of compounds in water and diluted hydrochloric acid
# Type: physicochemical
# details: simulated gastric fluid, thermodynamic from solid; diluted hydrochloric acid solution A (pH-1.5), room temperature, 1 hour
Catalogue of solubility at 1 h values

Query CC(C)S(=O)(=O)c1ccccc1Nc1nc(Nc2ccc3c(c2)OCCOCCNCCO3)nc2[nH]ccc12 yields solubility at 1 h of > 4330 µg/mL

Query CN1CCOCCOc2ccc(Nc3nc(O[C@H]4CC[C@@](C)(O)CC4)c4cc[nH]c4n3)cc2OCC1 yields solubility at 1 h of > 3070 µg/mL

Query CN1CCOc2ccc(Nc3ncc(C(F)(F)F)c(NCCP(C)(C)=O)n3)cc2OCC1 yields solubility at 1 h of > 3830 µg/mL

Query CN1CCOCCOc2cc(Nc3nc(-c4cnn([C@@H](CC#N)C5CCCC5)c4)c4cc[nH]c4n3)ccc2OCC1 yields solubility at 1 h of > 3500 µg/mL

Query C=CC(=O)Nc1cccc(Nc2nc(Nc3ccc4c(c3)OCCOCCN(C)CCO4)ncc2Cl)c1 yields solubility at 1 h of > 3730 µg/mL

Query CN1CCOCCOc2ccc(Nc3ncc(C(F)(F)F)c(O[C@H]4CC[C@@](C)(O)CC4)n3)cc2OCC1 yields solubility at 1 h of > 3770 µg/mL

---

pIC50: −log10 of the molar value.
Below are pIC50 values recorded for UniProtKB O60674.

>  <compound>
CN1CCOc2ccc(Nc3ncc(F)c(-c4cnn(C(CC#N)C5CCCC5)c4)n3)cc2OCC1 (stereo not shown) [Example 25]

>  <assay_value>
> 7.30

$$$$
>  <compound>
CN1CCOc2ccc(Nc3nc(-c4cnn(C(CC#N)C5CCCC5)c4)c4cc[nH]c4n3)cc2OCC1 (stereo not shown) [Example 27]

>  <assay_value>
> 7.30

$$$$
>  <compound>
CN1CCOc2ccc(Nc3ncc(F)c(-c4ccc(C(=O)NCC#N)cc4)n3)cc2OCC1 [Example 15]

>  <assay_value>
> 7.30

$$$$

Okay, now this compound:
So the reported pIC50 for CN1CCOCCOc2ccc(Nc3nc(Nc4cccc(S(=O)(=O)NC(C)(C)C)c4)c4cc[nH]c4n3)cc2OCC1 [Example 19] , on UniProtKB O60674, turned out to be > 7.30

---

Catalogue of inhibition at 0.1 µM values
# experimental_target: LRRK2 (Homo sapiens)
# test: experiment of inhibiting kinase activity, LRRK2
# Type: biochemical
# details: at 100 nM; read-out: inhibition rate LRRK2

Sample records with inhibition at 0.1 µM:
>  <compound>
CN1CCOc2ccc(Nc3ncc(F)c(-c4ccc(C(=O)NCC#N)cc4)n3)cc2OCC1 [Example 15]

>  <experimental_target>
LRRK2 (Homo sapiens)

>  <inhibition at 0.1 µM>
40 to 79%

$$$$
>  <compound>
CN1CCOc2ccc(Nc3nc(-c4cnn(C(CC#N)C5CCCC5)c4)c4cc[nH]c4n3)cc2OCC1 (centres unmarked) [Example 27]

>  <experimental_target>
LRRK2 (Homo sapiens)

>  <inhibition at 0.1 µM>
> 80%

$$$$
>  <compound>
CCS(=O)(=O)N1CC(CC#N)(n2cc(-c3nc(Nc4ccc5c(c4)OCCN(C)CCO5)nc4[nH]ccc34)cn2)C1 [Example 28]

>  <experimental_target>
LRRK2 (Homo sapiens)

>  <inhibition at 0.1 µM>
> 80%

$$$$
>  <compound>
CN1CCOCCOc2ccc(Nc3ncc(F)c(-c4ccc(C(=O)NCC#N)cc4)n3)cc2OCC1 [Example 44]

>  <experimental_target>
LRRK2 (Homo sapiens)

>  <inhibition at 0.1 µM>
40 to 79%

$$$$

Query CN1CCOCCOc2cc(Nc3ncc(F)c(Nc4ccc5[nH]ccc5c4)n3)ccc2OCC1 [Example 30] yields inhibition at 0.1 µM of 25 to 39%

Query CN1CCOCCOc2cc(Nc3nc(-c4cn(C)c5ccccc45)c4cc[nH]c4n3)ccc2OCC1 [Example 23] yields inhibition at 0.1 µM of 40 to 79%

Query CN1CCOCCOc2ccc(Nc3ncc(F)c(Nc4cccc(S(=O)(=O)NC(C)(C)C)c4)n3)cc2OCC1 [Example 40] yields inhibition at 0.1 µM of 25 to 39%

Query CN1CCOc2ccc(Nc3ncc(F)c(-c4cnn(C(CC#N)C5CCCC5)c4)n3)cc2OCC1 (centres unmarked) [Example 25] yields inhibition at 0.1 µM of 40 to 79%

---

Catalogue of inhibition at 0.01 µM values
# experimental_target: TYK2 (Homo sapiens)
# test: experiment of inhibiting kinase activity, TYK2
# Assay type: biochemical
# details: at 10 nM; read-out: inhibition rate TYK2
# Method: The inhibition rates of tested compounds on JAK1, JAK2, JAK3, TYK2, CDK7, CDK9, EGFR (T790M) and LRRK2 kinases were measured. The test concentrations of the compounds were 10 nM and 100 nM, and the detection was performed by replicate wells. Alternatively, compounds were 3-fold serial diluted from 10 µM for 10 concentrations in replicate wells.

Sample records with inhibition at 0.01 µM:
>  <compound>
CN1CCOCCOc2ccc(Nc3ncc(F)c(-c4ccc(C(=O)NCC#N)cc4)n3)cc2OCC1

>  <assay_value>
40 to 79%

$$$$
>  <compound>
CN1CCOc2ccc(Nc3ncc(F)c(-c4cnn(C(CC#N)C5CCCC5)c4)n3)cc2OCC1 (stereo not shown)

>  <assay_value>
40 to 79%

$$$$
>  <compound>
CN1CCOCCOc2ccc(Nc3nc(-c4cnn(C(CC#N)C5CCCC5)c4)c4cc[nH]c4n3)cc2OCC1 (stereo not shown)

>  <assay_value>
> 80%

$$$$

Okay, now this compound:
Query CN1CCOCCOc2ccc(Nc3nc(-c4ccc(C(=O)NCC#N)cc4)c4cc[nH]c4n3)cc2OCC1 yields inhibition at 0.01 µM of 25 to 39%

---

Catalogue of pEC50 values
# experimental_target: wild-type LRRK2 (Homo sapiens, UniProt Q5S007)
# Construct: pCMV-flag-WT LRRK2 (full-length)
# Sequence (Q5S007 whole entry): as above
# test: detection of phosphorylated S935 in HEK293T overexpressing wild-type LRRK2
# details: pS935, HEK293T overexpressing wild-type LRRK2, 1.5 hours
pEC50: −log10 of the molar value.

Query CCS(=O)(=O)N1CC(CC#N)(n2cc(-c3nc(Nc4ccc5c(c4)OCCN(C)CCO5)nc4[nH]ccc34)cn2)C1 [Example 28] yields pEC50 of > 6.30

Query CN1CCOc2ccc(Nc3nc(Nc4ccccc4P(C)(C)=O)c4cc[nH]c4n3)cc2OCC1 [Example 73] yields pEC50 of > 6.30

Query CC(C)S(=O)(=O)c1ccccc1Nc1nc(Nc2ccc3c(c2)OCCN(C)CCO3)ncc1C(F)(F)F [Example 82] yields pEC50 of > 6.30

Query CN1CCOc2ccc(Nc3nc(NCCS(C)(=O)=O)c4cc[nH]c4n3)cc2OCC1 [Example 84] yields pEC50 of 5.30 to 6.00

Query CN1CCOCCOc2ccc(Nc3nc(O[C@H]4CC[C@@](C)(O)CC4)c4cc[nH]c4n3)cc2OCC1 [Example 6] yields pEC50 of > 6.30

Query CN1CCOc2ccc(Nc3nc(-c4ccc(C(=O)NCC#N)cc4)c4cc[nH]c4n3)cc2OCC1 [Example 2] yields pEC50 of > 6.30

Query CN1CCOc2ccc(Nc3ncc(C(F)(F)F)c(Nc4ccccc4P(C)(C)=O)n3)cc2OCC1 [Example 83] yields pEC50 of > 6.30
